Taken from patent US20190359687A1.

system_name: T1, Cynomolgus monkey glycophorin A on Cynomolgus monkey red blood cells (Cynomolgus monkey)
T1 construct: whole, on cells; also called Cyno RBC; Cyno GPA
method_summary: FACS, Cyno RBC
Some binders, each annotated with its measured FACS signal.
assay_readout: FACS signal

1. 1H5B4/H12 (antibody, V domains shown, as m8) VH: QVQLQQSGAELARPGASVKMSCKASGYTFTSYSIHWIKQRPGQSLEWIGYINPNSDYANYNQKFKDKATLTTDKSSTTAYMQLSSLTTDDSAVYYCQTGTRDYWGQGTTLTVSS VL: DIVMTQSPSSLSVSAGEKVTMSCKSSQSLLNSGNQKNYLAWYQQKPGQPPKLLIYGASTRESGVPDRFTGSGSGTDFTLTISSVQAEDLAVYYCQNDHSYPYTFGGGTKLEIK
0.93 relative flourescence units
2. 1E4A2/F8 (antibody, V domains shown, as m8) VH: QVQLQQSGAELARPGASVKMSCKASGYTFTRYSMHWVKQRPGQGLEWIGYINPGTYYTNYNQKFKDRATLTADKSSSTAYMQLNSLTSEDSAVYYCQTGTRDYWGQGTTLTVSS VL: QIVLTQSPPIMSASPGEKVTITCSAASSVSYIYWFQQKPGTSPKLWIYSTSSLPSGVPTRFSGSGSGTSYSLTISRMEAEDAATYYCHQRSSYPFTFGSGTKLEIR
272 relative flourescence units
3. 12C6A6/A5 (antibody, V domains shown, as m8) VH: QVQLQQSGAELARPGASVKMSCKASGYTFTRYSMHWVKQRPGQGLEWIGYINPGTYSTNYNQKFKDRATLTADKSSSTAYMQLNSLTSEDSAVYYCQTGTRDYWGQGTTLTVSS VL: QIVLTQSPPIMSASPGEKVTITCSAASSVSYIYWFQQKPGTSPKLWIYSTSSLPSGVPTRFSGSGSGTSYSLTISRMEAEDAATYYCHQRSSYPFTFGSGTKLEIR
7 relative flourescence units
4. 13G7G1/C3 (antibody, V domains shown, as m8; also called TPP-3423) VH: RVQLQQSGAELARPGASVKMSCKASGYTFTNYAMHWVKQRPGQGLEWIGYINPKSDNTNYNQKFKDKATLTTDKSSATAYMQLSSLTSDDSAVYYCQTGTRDYWGQGTTLTVSS VL: HIVLTQSPAIMSASPGEKVTIFCSASSSITYVYWFQQKPGTSPKLWIYSTSSLPSGVPARFSGSGSGTSYSLTISRMEAEDAATYYCHQRNSYPFTFGSGTKLEIK
294 relative flourescence units
